- assay: kinetic solubility in FaSSIF (Pion µDissolution monitor)
- Assay type: physicochemical
- condition notes: thermodynamic from solid; FaSSIF pH 6.5; 37° C; T=1 hour
observed property: solubility at 1 h (µg/mL)
Report as a plain number; the unit µg/mL is understood.

response.value for C[C@@H]1C[C@H]2[C@@H]3CCC4=CC(=O)C=C[C@]4(C)C3=CC[C@]2(C)[C@@]1(O)C(=O)CO [Crystalline API] (field: solubility at 1 h) = 49.2

* * *

- assay: kinetic solubility in FaSSIF (Pion µDissolution monitor)
- Type: physicochemical
- condition notes: thermodynamic from solid; FaSSIF pH 6.5; 37° C; T=12 hour
observed property: solubility at 12 h (µg/mL)
Report as a plain number; the unit µg/mL is understood.

response.value for C[C@@H]1C[C@H]2[C@@H]3CCC4=CC(=O)C=C[C@]4(C)C3=CC[C@]2(C)[C@@]1(O)C(=O)CO [Crystalline API] (field: solubility at 12 h) = 48.8

* * *

- assay: kinetic solubility in FaSSIF (Pion µDissolution monitor)
- Format: physicochemical
- condition notes: thermodynamic from solid; FaSSIF pH 6.5; 37° C; T=5 min
observed property: solubility at 5 min

response.value for C[C@@H]1C[C@H]2[C@@H]3CCC4=CC(=O)C=C[C@]4(C)C3=CC[C@]2(C)[C@@]1(O)C(=O)CO (field: solubility at 5 min) = 46.4 µg/mL
